Tested on: EKVX NSCLC
assay_details: NCI tumour cell line growth inhibition, 48 h
Could you please report measured TGI for the items listed next?

Recorded TGI for O=C1NCCCC12CCCNC2=O on EKVX NSCLC was > 100 µM

Hey, can you go through the list below and give me TGI for every item?
1. O=c1c2cc(Br)ccc2nc(-c2ccccc2Cl)n1NCC1(O)OCC(O)C(O)C1O (stereo not given)
2. Cc1ccc(S(=O)(=O)NNC(=O)c2sc(-c3nc(C)c(C(=O)NNS(=O)(=O)c4ccc(C)cc4)s3)nc2C)cc1
3. CCOC(=O)c1cc(C2CCN(CC(C)CC)C2=S)c(-c2cc(C)no2)[nH]1 (stereo not given)
4. O=C1c2ccc3c4c5ccc(c24)C(=O)N1CCCOCCCCOCCCNCc1ccc(cc1)CNCCCOCCCCOCCCN(C3=O)C5=O

Response:
> 100 µM
> 100 µM
> 100 µM
1.63 µM
